Below, each entry is listed with its recorded half-life.
- Assay Remarks: Oxidative breakdown with urea.H2O2 monitored by 1H NMR
- Assay type: physicochemical
- Run Conditions: H2O2.urea (6-12 equiv) in CD3CN:D2O 5:1; 6-12 equiv H2O2.urea, pH 8.0, CD3CN:D2O 5:1, rt; read-out: t1/2 (substrate consumption)
Outcome Measure: half-life

> print(dat)
                                   compound     result
1  Cc1c(C)c2c(c(C)c1OC(=O)OC(C)(CCO[Si](C)(C)C(C)(C)C)B1OC(C)(C)C(C)(C)O1)CCC(C)(C)O2 (stereo not shown) [Compound 20]     90 min
2  CCC(C)(OC(=O)c1ccccc1)B1OC(C)(C)C(C)(C)O1 (stereo not shown) [Compound 22]  > 936 min
3  CCC(C)(OCO[C@@H]1C[C@H](C)CC[C@H]1C(C)C)B1OC(C)(C)C(C)(C)O1 (stereo partly shown) [Compound 13]    < 2 min
4  CCOC(C)(CCc1ccc(O[Si](C)(C)C(C)(C)C)cc1)B1OC(C)(C)C(C)(C)O1 (stereo not shown) [Compound 15]    < 2 min
5  CCC(C)(OCOC1CCCCC1)B1OC(C)(C)C(C)(C)O1 (stereo not shown) [Compound 11]    < 2 min
6  CCC(C)(OCC(C)C)B1OC(C)(C)C(C)(C)O1 (stereo not shown) [Compound 17]    < 2 min
7  CC(C)C(OC1CCCCC1)B1OC(C)(C)C(C)(C)O1 (stereo not shown) [Compound 19]    < 2 min
